Tested on: HT-29
assay.comment: NCI tumour cell line growth inhibition, 48 h
Activity calls are given as the source filed them. Rule as the data show it: active = GI50 up to about 1.1 µM and inactive = higher.
Hi! Could you answer with just one of these? active, inactive

molecule: C=C(C(=O)C(=O)Oc1ccc(Cl)cc1)C(=O)c1ccc(C)cc1
qualitative.label: inactive

molecule: C1=C(CC2=C[P+](c3ccccc3)(c3ccccc3)C=C(c3ccccc3)O2)OC(c2ccccc2)=C[P+]1(c1ccccc1)c1ccccc1
qualitative.label: active

molecule: COCOCc1cc(OCc2ccccc2)c(OC)cc1Br
qualitative.label: inactive

molecule: Oc1cccnc1/C=N/OCc1ccccc1
qualitative.label: inactive

molecule: CC(=O)C1(O)CCC2(O)C3(O)CC=C4CC(O)CCC4(C)C3CC(OC(=O)c3ccc(O)cc3)C12C.COC1CC(OC2C(C)OC(OC3C(C)OC(OC4CCC5(C)C(=CCC6(O)C5CC(OC(=O)c5ccc(O)cc5)C5(C)C(O)(C(C)=O)CCC65O)C4)CC3OC)CC2OC)OC(C)C1O (configuration not stated)
qualitative.label: inactive

molecule: NS(=O)(=O)c1cc(C(=O)O)c(O)c2ccccc12
qualitative.label: inactive

molecule: c1ccc(Cc2cc(-c3ccccc3)[nH]n2)cc1
qualitative.label: inactive

molecule: O=C1Nc2ccccc2/C1=N/NC(=O)c1ccccc1O
qualitative.label: inactive

Could you please tell me the result logged for `O=C1C(Br)=CC2(C=C1Br)CCNC1=C2C(=O)c2[nH]cnc2C1=O` in this assay?
inactive

Returns: the outcome recorded for CC(=O)OCC12C(OC(C)=O)C(=O)C3C(OC(C)=O)C14OC3(C)COC(=O)c1cccnc1C(C)C(C)C(=O)OC(C(OC(C)=O)C2OC(C)=O)C4(C)O (configuration not stated) in this assay.
inactive

Recorded test outcome, item `CN(CCCNC(=O)c1cn(C)c2c1Cc1ccccc1-2)CCCNC(=O)c1cn(C)c2c1Cc1ccccc1-2`
inactive

Field: outcome | Entry: `COc1cc(O)c2c(c1)C(=O)C=C(Cl)C2=O`
inactive

Which result was noted for this molecule in the test: `O=C1C(Cl)=C(N2C(=O)CCC2=O)C(=O)c2ccccc21`
inactive

Hi, sorry to bother you, what did the test record for COC(=O)CNC(=O)CCC(C)[C@H]1CCC2C3C(C[C@H](OC(C)=O)[C@@]21C)[C@@]1(C)CCC2(C[C@H]1C[C@H]3OC(C)=O)OOC1(CC[C@]3(C)C4C[C@H](OC(C)=O)[C@@]5(C)C(CC[C@@H]5C(C)CCC(=O)NCC(=O)OC)C4[C@H](OC(C)=O)C[C@@H]3C1)OO2 (some centres not stated) ?
active

Called result for Cc1cc(O)nc(NNC(C#N)c2ccc([N+](=O)[O-])cc2)n1 (configuration not stated)
inactive

Could you please tell me the result logged for Cc1cn(C2CC(N=[N+]=[N-])C(COP(=O)(O)OCC3OC(n4cc(F)c(=O)[nH]c4=O)CC3O)O2)c(=O)[nH]c1=O (configuration not stated) in this assay?
inactive

Which outcome was entered for the molecule `O=C(Nc1c(O)[nH]c(=S)[nH]c1=O)c1ccccc1` in this test?
inactive

----------
System: K562
assay.comment: NCI tumour cell line growth inhibition, 48 h
Calls of active or inactive are those of the source. No stated cut-off is given here; in the data, active = GI50 up to about 1.1 µM and inactive = higher.
For each entry below, report its GI50 value.

molecule: C=CCNC(=S)N/C=C(\C#N)C(N)=O
GI50: > 100 µM (inactive)
//
molecule: COc1cccc(-c2cc(O)c3cc(N4CCCC4)ccc3n2)c1
GI50: < 0.001 µM (active)
//
molecule: O=C1NCC2(CCN(Cc3ccccc3)CC2)N1
GI50: > 100 µM (inactive)
//
molecule: O=[N+]([O-])c1ccc(C(Nc2ccccc2)P(c2ccccc2)c2ccccc2)cc1 (stereo unspecified)
GI50: 22.5 µM (inactive)
//
molecule: OC(c1nc2ccccc2[nH]1)C(O)C(O)C(O)c1nc2ccccc2[nH]1 (stereo unspecified)
GI50: > 100 µM (inactive)

Batch request: GI50 for each of the following molecules.
1. Cc1nc(-c2cc3ccccc3oc2=O)cs1
2. COC(=O)C1C(=O)O[C@@H](c2ccc(OC)cc2)C1C(=O)OC (stereo partly specified)
3. CN(CCCNC(=O)c1cn(C)c2c1Cc1ccccc1-2)CCCNC(=O)c1cn(C)c2c1Cc1ccccc1-2
4. Cc1ccc(C(=O)N/N=C(\N=N\c2ccccc2C(=O)O)c2ccc(N(C)C)cc2)cc1
5. O=C(O)c1cc2sc(C(=O)O)cc2s1

["> 100 µM (inactive)", "> 100 µM (inactive)", "2.78 µM (inactive)", "35.8 µM (inactive)", "> 100 µM (inactive)"]

Hey, can you go through the list below and give me GI50 for every item?
1. O=C1CCN2C(=O)CCN12
2. CC(=O)OCC12C(OC(C)=O)C(=O)C3C(OC(C)=O)C14OC3(C)COC(=O)c1cccnc1C(C)C(C)C(=O)OC(C(OC(C)=O)C2OC(C)=O)C4(C)O (stereo unspecified)
3. Cc1cccc(C)c1N1C(=O)C2c3[nH]c4ccccc4c3C3CCC(C(C)(C)C)CC3C2C1=O (stereo unspecified)
4. Cc1cc2nc3c(C#N)c4c(c(-c5ccc(Cl)cc5)n3c2cc1C)CCC4
5. O=C1/C(=C/c2cccc(Br)c2)CCc2ccccc21
6. CCC(O)CC1OC2(CCC1C)CC1OC(=O)/C=C\C(C)(O)C(O)C(C)C(O)C(OC3CC(OC)C(O)C(C)O3)C(O)C(C)(O)CCC/C=C/C3CC(C)COC3(O)CC(O2)C1C (stereo unspecified)

1: > 100 µM (inactive); 2: > 100 µM (inactive); 3: 9.06 µM (inactive); 4: 23.1 µM (inactive); 5: 6.65 µM (inactive); 6: < 0.01 µM (active)
